Taken from patent US8871934B2.

biological target: UniProt:Q15119; assay: Inhibitory action of PDHK activity in vitro (kinase reaction, residual PDH activity measured); assay type: biochemical; conditions: PDHK inhibitory activity, class symbol of IC50
Reported property: IC50

- Compound: "Cc1cc(-c2cnn(CCCC(=O)O)c2)c2c(c1)C(O)(C(F)(F)F)c1ccccc1-2 (single isomer, unassigned; (+)) [compound 539]"
  Readout value: "< 100 nM"
- Compound: "O=C(NCCO)c1ccc2c(c1)C(O)(C(F)(F)F)c1ccccc1-2 (centres unmarked) [compound 310]"
  Readout value: "> 1000 nM"
- Compound: "OC1(C(F)(F)F)c2ccccc2-c2ccc(-c3ccc(Cl)cc3)cc21 (centres unmarked) [compound 179]"
  Readout value: "> 1000 nM"
- Compound: "CN1C(=O)CC[C@H]1COc1ccc2c(c1)C(O)(C(F)(F)F)c1ccccc1-2 (some centres unmarked) [compound 448]"
  Readout value: "100 to 1000 nM"
- Compound: "O=C1NCCN1CCOc1ccc2c(c1)C(O)(C(F)(F)F)c1ccccc1-2 (centres unmarked) [compound 469]"
  Readout value: "100 to 1000 nM"
- Compound: "CCc1cccc2c1-c1ccccc1C2(O)C(F)(F)F (centres unmarked) [compound 25]"
  Readout value: "> 1000 nM"
- Compound: "CCn1cc(-c2cc(C(C)=O)c3c(c2)C(O)(C(F)(F)F)c2ccccc2-3)cn1 (centres unmarked) [compound 587]"
  Readout value: "< 100 nM"
- Compound: "COC(=O)COc1ccc2c(c1)C(O)(C(F)(F)F)c1ccccc1-2 (centres unmarked) [compound 357]"
  Readout value: "> 1000 nM"
- Compound: "OC1(C(F)(F)F)c2ccccc2-c2ccc(N3CCOCC3)cc21 (centres unmarked) [compound 161]"
  Readout value: "> 1000 nM"
- Compound: "Cn1cc(-c2cc(C(N)=O)c3c(c2)C(O)(C(F)(F)F)c2ccccc2-3)cn1 (centres unmarked) [compound 518]"
  Readout value: "< 100 nM"
- Compound: "Cn1cc(-c2cc(C(=O)N3CCCC3)cc3c2-c2ccccc2C3(O)C(F)(F)F)cn1 (centres unmarked) [compound 356]"
  Readout value: "< 100 nM"
- Compound: "CNC(=O)CCn1cc(-c2cccc3c2-c2ccccc2C3(O)C(F)(F)F)cn1 (centres unmarked) [compound 487]"
  Readout value: "< 100 nM"
- Compound: "Cn1cc(-c2cc(OCCNC(=O)CCC(=O)C(F)(F)F)cc3c2-c2ccccc2C3(O)C(F)(F)F)cn1 (centres unmarked) [compound 464]"
  Readout value: "< 100 nM"
- Compound: "OC1(C(F)(F)F)c2ccccc2-c2cc(Cl)ccc21 (centres unmarked) [compound 9]"
  Readout value: "> 1000 nM"
- Compound: "OC1(C(F)(F)F)c2ccccc2-c2ccc(Oc3ccccc3)cc21 (centres unmarked) [compound 187]"
  Readout value: "> 1000 nM"
- Compound: "O=C1CCCCN1CCCOc1ccc2c(c1)C(O)(C(F)(F)F)c1ccccc1-2 (centres unmarked) [compound 401]"
  Readout value: "100 to 1000 nM"
- Compound: "NC(=O)C1CCN(c2ccc3c(c2)C(O)(C(F)(F)F)c2ccccc2-3)CC1 (centres unmarked) [compound 230]"
  Readout value: "> 1000 nM"
